# experimental_protocol: SMARCA2 (BRM) function activators, primary screen, cell-based, luminescence, high throughput (AID 652017);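 note: 0% = vehicle wells and 100% = reference activator wells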
# test_parameters: MG213 cells, MMTV-luciferase reporter, dexamethasone, overnight; at 9.1 µM; hits give high values
The campaign covered roughly 370,000 compounds. About 3,800 (1%) were called active. The full list was thinned out, with actives kept by preference.
readout_label: activation (%)
Use % as the unit, but write only the number.

Query :: Please give the documented activation of `CC(C)(C)n1nc(C2CC2)c(Br)c1NC(=O)c1ccccc1F`
Result :: -3.81

Query :: Please give the documented activation of `COc1ccc(Cn2c(C)c(C)c(C#N)c2NC(=O)Nc2ccc(F)cc2)cc1`
Result :: 13.3

Query :: Please give the documented activation of CC1CCCCC1NC(=O)CN1CCC(O)(c2ccc3c(c2)OCO3)CC1 (stereo unspecified)
Result :: 8.42

Query :: Please give the documented activation of CC1CCCCC1NC(=O)CCS(=O)(=O)c1ccc2c(c1)NC(=O)CO2 (stereo unspecified)
Result :: -2.77

Query :: Please give the documented activation of `COc1ccc(Cn2cccc(NC(=O)Nc3ccc(C#N)cc3)c2=O)cc1`
Result :: -4.78

Query :: Please give the documented activation of `Cc1c(C#N)c(NC(=O)c2ccccc2)n(Cc2ccccc2)c1C`
Result :: -1.06

====

# experimental_protocol: SMARCA2 (BRM) function activators, primary screen, cell-based, luminescence, high throughput (AID 652017);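 note: 0% = vehicle wells and 100% = reference activator wells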
# test_parameters: MG213 cells, MMTV-luciferase reporter, dexamethasone, overnight; at 9.1 µM
Hit rate of the full screen: of about 370,000 compounds, about 3,800 (1%) were called active. Cut-off read from the data, not from the text of the source: active = activation above about 7.8%; inactive = the rest. The entries come from a sample that favours actives as a whole.
Hi! Could you answer with just one of these? YES = active, NO = inactive

A selection of reference data follows.
[[record]]
molecule = "N#Cc1c(/N=C/N2CCCC2)oc(-c2ccccc2)c1-c1ccccc1"
qualitative_label = "NO"

[[record]]
molecule = "CC(c1ccc(N)cc1)c1cn(C)c2ccccc12 (configuration not stated)"
qualitative_label = "NO"


Query :: Recorded test outcome, item `COc1ccc(N=C(C)c2sc3ccccc3c2O)cc1`
Result :: YES

Query :: Recorded test outcome, item `COc1ccc(S[C@]2(C(=O)N(C)C)CC(=O)N(c3ccc(OC)cc3)[C@@H]2c2ccc(OC)cc2)cc1`
Result :: NO

Query :: Recorded test outcome, item `O=C(Nc1cccc([N+](=O)[O-])c1)c1ccc2c(c1)OCO2`
Result :: YES

Query :: Recorded test outcome, item `CN(C)S(=O)(=O)c1cccc(C(=O)N/N=C\c2ccco2)c1`
Result :: NO

Query :: Recorded test outcome, item `Cc1ccccc1NC(=O)c1cc(S(=O)(=O)N2CCOCC2)cs1`
Result :: NO

Query :: Recorded test outcome, item `CCN(CC)CCNC(=O)c1ccc(NC(=O)c2c(F)cccc2Cl)cc1`
Result :: NO

Query :: Recorded test outcome, item COC(=O)C1CN(CC(C)C)CCS(=O)(=O)N1Cc1ccc(F)cc1 (configuration not stated)
Result :: NO

====

# experimental_protocol: SMARCA2 (BRM) function activators, primary screen, cell-based, luminescence, high throughput (AID 652017);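 note: 0% = vehicle wells and 100% = reference activator wells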
# test_parameters: MG213 cells, MMTV-luciferase reporter, dexamethasone, overnight; at 9.1 µM; hits give high values
The campaign covered roughly 370,000 compounds. About 3,800 (1%) were called active. The list comes from a sample in which actives are over-represented; it also holds close analogues and randomly drawn compounds.
readout_label: activation

[[record]]
compound = "CCOC(=O)N1CCN(C(=O)C[C@H]2C[C@@]3(C(=O)OC)C(=C[C@H](C(C)(C)C)O[C@@H]3C)N(Cc3ccc(Cl)cc3Cl)C2=O)CC1"
experimental_result = "-4.25% (inactive)"

[[record]]
compound = "Cc1cc(=O)[nH]c(SCC(=O)Nc2ccc(F)cc2F)n1"
experimental_result = "-4.89% (inactive)"


Moving on to the next compound.
Query :: Please give the documented activation of `CCC(=O)Nc1ccc2nn(-c3ccc(F)cc3)nc2c1`
Result :: 9.02% (active)

====

# experimental_protocol: SMARCA2 (BRM) function activators, primary screen, cell-based, luminescence, high throughput (AID 652017);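 note: 0% = vehicle wells and 100% = reference activator wells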
# test_parameters: MG213 cells, MMTV-luciferase reporter, dexamethasone, overnight; at 9.1 µM; hits give high values
About 3,800 (1%) of roughly 370,000 compounds were called active. Many of the other results were omitted from the sample, so actives are more common in it than they were.
readout_label: activation (%)
Use % as the unit, but write only the number.

Solved cases below.
[[record]]
molecule = "CCCn1c(=O)c2ccccc2n2c(SCC(=O)/C(C#N)=C(\\C)N)nnc12"
readout_label = "activation"
experimental_result = 9.35

[[record]]
molecule = "O=C(Nc1ccccn1)C1CCN(S(=O)(=O)c2ccc3c(c2)OCCO3)CC1"
readout_label = "activation"
experimental_result = -2.23

[[record]]
molecule = "Cc1c(CCO)c(=O)n(-c2ccccc2)n1S(=O)(=O)c1ccc(F)cc1"
readout_label = "activation"
experimental_result = -2.63

[[record]]
molecule = "CCCOc1ccc(Oc2c(Cl)cnn(Cc3cccc4ccccc34)c2=O)cc1"
readout_label = "activation"
experimental_result = -0.93

[[record]]
molecule = "C=CCn1c(=O)c2ccccc2n2c(SCC(=O)N3CCCc4ccccc43)nnc12"
readout_label = "activation"
experimental_result = 1.43


Query :: Please give the documented activation of `COc1cccc(-c2cnc(OC(C)(C)C)nc2OC(C)(C)C)c1`
Result :: -2.58

Query :: Please give the documented activation of `O=C(CSc1nnc(-c2ccccn2)n1-c1ccccc1)Nc1ccc2cn[nH]c2c1`
Result :: 0.38

Query :: Please give the documented activation of `N#Cc1ccccc1NC(=O)c1cccc(COc2ccc(Cl)cc2Cl)c1`
Result :: 9.56

Query :: Please give the documented activation of `COc1ccc(-c2cc(C3CCN(c4ncccc4[N+](=O)[O-])CC3)[nH]n2)cc1`
Result :: -2.21

Query :: Please give the documented activation of `CCCCNC(=O)C[C@H]1C[C@@]2(C(=O)OC)C(=C[C@H](COCc3ccccc3)O[C@@H]2C)N(Cc2ccc(Cl)cc2Cl)C1=O`
Result :: -3.4

====

# experimental_protocol: SMARCA2 (BRM) function activators, primary screen, cell-based, luminescence, high throughput (AID 652017);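 note: 0% = vehicle wells and 100% = reference activator wells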
# test_parameters: MG213 cells, MMTV-luciferase reporter, dexamethasone, overnight; at 9.1 µM; hits give high values
Hit rate of the full screen: of about 370,000 compounds, about 3,800 (1%) were called active. The entries come from a sample that favours actives as a whole.
readout_label: activation (%)
Use % as the unit, but write only the number.

Solved cases below.
[[record]]
molecule = "O=C(O)Cn1c(Cc2ccccc2)nc2ccccc21"
readout_label = "activation"
experimental_result = -0.68

[[record]]
molecule = "COc1cccc(N(C)C(=O)[C@@H](C)[C@@H](O)c2ccc3ccccc3c2)c1"
readout_label = "activation"
experimental_result = -2.05

[[record]]
molecule = "CO/N=C/CC(=O)c1ccc(OC)cc1"
readout_label = "activation"
experimental_result = 4.21

[[record]]
molecule = "CC(NC(=O)c1ccc(Cl)cc1)C(=O)N1CCCCC1 (configuration not stated)"
readout_label = "activation"
experimental_result = 0.9

[[record]]
molecule = "Cc1ccc(NC(=O)Nc2cc(C)nn2-c2ccccc2)cc1"
readout_label = "activation"
experimental_result = -3.87


Query :: Please give the documented activation of `Cn1c(-c2ccc(F)cc2)cc2onc(-c3ccccc3Cl)c2c1=O`
Result :: 9.9

Query :: Please give the documented activation of `COc1cccc(CNC(=O)[C@H]2CCCN2C(=O)[C@H]2CCCN2C(=O)c2ccc(F)cc2)c1`
Result :: -5.59

Query :: Please give the documented activation of `CC(=O)Nc1ccc(OC[C@@H](O)CN2CCC(C(O)(c3ccccc3)c3ccccc3)CC2)cc1`
Result :: -1.46

Query :: Please give the documented activation of `CC(C)(C)OC(=O)NCCc1ccccc1/C=C/S(=O)(=O)NCc1ccc(F)cc1`
Result :: -3.29

Query :: Please give the documented activation of `Oc1cccc2ccc(/C=C/c3ccc(Br)s3)nc12`
Result :: 10.9

Query :: Please give the documented activation of `CCOC(=O)[C@]12CCCCC/C=C\1N(Cc1ccc(OC)cc1)C(=O)[C@H]2CC(=O)NCCCN1CCCC1=O`
Result :: -2.38

Query :: Please give the documented activation of `O=C(CCCCCCCC(=O)N1CCCCC1)N1CCCCC1`
Result :: -4.31

Query :: Please give the documented activation of COC(C(=O)Nc1ccc(S(=O)(=O)Nc2ccc(C)c(C)c2)cc1)c1ccccc1 (configuration not stated)
Result :: -2.54

Query :: Please give the documented activation of `Cc1ccc(-c2nc(CSCC(=O)NC3CCN(Cc4ccccc4)CC3)c(C)o2)cc1`
Result :: -3.96

Query :: Please give the documented activation of `Cc1cc(NC(=O)CSCc2nc(-c3cccc(Cl)c3)oc2C)no1`
Result :: -4.35

Query :: Please give the documented activation of `Cc1ccc(NC(=O)c2cc3ccccc3o2)cc1`
Result :: 8.36

Query :: Please give the documented activation of `N/C(=N\OC(=O)CCc1ccccc1)c1ccc(Cl)cc1`
Result :: 5.53

Query :: Please give the documented activation of `COc1ccc(S(=O)(=O)N(C)C[C@H]2Oc3c(NC(=O)Nc4ccc5c(c4)OCO5)cccc3C(=O)N([C@H](C)CO)C[C@@H]2C)cc1`
Result :: -0.71

Query :: Please give the documented activation of `COc1ccnc(NC(=S)N2CCN(c3ncc(C(F)(F)F)cc3Cl)CC2)c1`
Result :: -3.61

Query :: Please give the documented activation of CCC(NC(=O)C1C2C=CC3(CN(Cc4ccccc4)C(=O)C13)O2)c1ccccc1 (configuration not stated)
Result :: -1.92

Query :: Please give the documented activation of `Cc1[nH]n(C)c(=O)c1C(=O)c1c(-c2c(Cl)cccc2Cl)noc1C`
Result :: -2.74
